Data origin: patent US20250051467A1

Target: T1, h-FAP-His (human, UniProt Q12884 26-760)
T1 construct: range 26-760; Bought recombinant protein with a His tag; also called human FAP-His protein; FAP recombinant protein with a His tag
T1 sequence (Q12884 26-760 limits assumed): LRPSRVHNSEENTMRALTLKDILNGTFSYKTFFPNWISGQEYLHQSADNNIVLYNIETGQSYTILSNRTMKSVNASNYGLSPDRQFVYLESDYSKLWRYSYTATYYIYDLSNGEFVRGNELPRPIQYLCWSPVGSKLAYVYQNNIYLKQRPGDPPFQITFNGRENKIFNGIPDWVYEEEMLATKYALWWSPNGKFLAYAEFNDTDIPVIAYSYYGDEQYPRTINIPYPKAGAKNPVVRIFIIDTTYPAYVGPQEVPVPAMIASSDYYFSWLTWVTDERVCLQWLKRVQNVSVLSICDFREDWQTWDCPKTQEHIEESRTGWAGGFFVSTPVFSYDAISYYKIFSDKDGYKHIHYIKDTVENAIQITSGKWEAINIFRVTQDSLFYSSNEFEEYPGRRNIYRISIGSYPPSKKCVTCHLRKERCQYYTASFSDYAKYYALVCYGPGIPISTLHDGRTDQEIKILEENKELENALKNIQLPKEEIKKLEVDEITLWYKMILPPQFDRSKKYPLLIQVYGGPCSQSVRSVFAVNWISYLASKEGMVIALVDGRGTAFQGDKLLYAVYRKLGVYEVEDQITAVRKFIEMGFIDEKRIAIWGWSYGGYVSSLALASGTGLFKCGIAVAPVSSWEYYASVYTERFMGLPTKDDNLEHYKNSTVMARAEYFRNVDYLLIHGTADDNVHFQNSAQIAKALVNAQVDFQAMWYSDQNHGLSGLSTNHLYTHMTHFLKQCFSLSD
Assay: SPR, antibody captured by anti-human IgG Fc, h-FAP-His analyte
# maps each entry to its Kd
measureName: Kd (nM)

# binder, result
records = [
    ("Ab9 (antibody, human IgG1, kappa, L234A L235A, V domains shown, Fully human, IgG1 / kappa; also called anti-FAP antibody Ab9) VH: QMQLVQSGAEVKKPGASVTVSCRASGYSFADHFIHWVRQAPGQGFQWMGWINPNRGVTHHAQDFQGRVAMTRDMSTDTVYMELTSLRSDDTAVYYCARDESLTARPYYFYGFDVWGQGTLVTVSS VL: DIQMTQSPSSVSASVGDRVTITCRASQGISSWLAWYQQKPGKAPKLLIYAASSLQSGVPSRFSGSGSGTDFTLTISSLQPEDFATYYCQQANSFPPAFGQGTKVEIKR", 0.306),
    ("28H1 (antibody, V domains shown, also called control anti-FAP antibody 28H1) VH: EVQLLESGGGLVQPGGSLRLSCAASGFTFSSHAMSWVRQAPGKGLEWVSAIWASGEQYYADSVKGRFTISRDNSKNTLYLQMNSLRAEDTAVYYCAKGWLGNFDYWGQGTLVTVSS VL: EIVLTQSPGTLSLSPGERATLSCRASQSVSRSYLAWYQQKPGQAPRLLIIGASTRATGIPDRFSGSGSGTDFTLTISRLEPEDFAVYYCQQGQVIPPTFGQGTKVEIK", 1.31),
    ("Ab15 (antibody, human IgG1, kappa, L234A L235A, V domains shown, Fully human, IgG1 / kappa; also called anti-FAP antibody Ab15) VH: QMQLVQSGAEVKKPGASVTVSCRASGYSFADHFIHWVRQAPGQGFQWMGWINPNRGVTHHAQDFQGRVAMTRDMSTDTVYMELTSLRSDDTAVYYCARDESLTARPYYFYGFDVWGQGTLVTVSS VL: EIVLTQSPSSVSASVGDRVTITCRASQGISSWLAWYQQKPGKAPKSLIYAASSLQSGVPSRFSGSGSGTDFTLTISSLQPEDFATYYCQQANSFPPTFGGGTKVEIKR", 0.215),
]
